- System: SK-MEL-28 melanoma
- Experiment Summary: NCI tumour cell line growth inhibition, 48 h; in the data active = GI50 below about 0.43 µM; inactive = the rest
Your answer must be one of the following: active, inactive

Compound	Class Assignment
Cc1cc2cn3c4ccc(O)cc4[nH]c(=O)c3c2cc1C	active

Called result for `O=c1c(O)cccc2cc(O)c(O)c(O)c12` inactive

Please give the result for `N#CSc1c[nH]c2ccc(/C=C/C(=O)/C=C(/C=C/c3ccc4[nH]cc(SC#N)c4c3)OB(F)F)cc12` too. inactive

Please give the result for CCCCCCCCCCCCCCCC[N+](C)(CCO)Cc1cnc[nH]1 (stereo unspecified) too. inactive

Please give the result for Nc1nc2cc3ccc(C4CC(O)C(CO)O4)cc3cc2c(=O)[nH]1 (stereo unspecified) too. inactive

Please give the result for `CS(=O)(=O)CCNCc1ccc(-c2ccc3ncnc(Nc4ccc(OCc5cccc(F)c5)c(C(F)(F)F)c4)c3c2)o1` too. inactive

Please give the result for `O=Cc1ccc(-c2ccc(-c3nc4ccccc4o3)cc2)s1` too. inactive

Please give the result for `CC(=O)[O-].[Mn+3].[O-]c1ccccc1C=NCCN=Cc1ccccc1[O-]` too. inactive

Please give the result for `N=C(N)c1ccc(-c2ccc(-c3ccccc3)s2)cc1` too. inactive

Please give the result for `C[C@@H]1Cc2c([nH]c3ccccc23)[C@@H](c2c(F)cc(NC3CN(CCCF)C3)cc2F)N1CC(F)(F)CO` too. inactive

Please give the result for `COC(=O)Nc1nc2ccc(C(=O)c3ccc(N(C)C4COC4)cc3)cc2[nH]1` too. inactive

###

TGI values, listed per item
- Tested on: HCC-2998 colon
- Experiment Summary: NCI tumour cell line growth inhibition, 48 h

Check out these entries, answers already filled in.
Compound	TGI
C=C(C)C1CC/C(C)=C/CC[C@]2(C)O[C@H]2CC/C(COC(C)=O)=C\[C@@H]1O (some centres undefined)	> 50 µM
O=S(=O)(N/N=C/c1cccc(Cl)c1Cl)c1ccccc1	> 100 µM
O=C(Nc1cccc(Cc2cccc(NC(=O)c3ccccc3)c2)c1)c1ccccc1	> 100 µM

From here, focus on the item given below.
# value lookup — system HCC-2998 colon, readout TGI, item `CC(=O)Oc1cc2c(c3ncccc13)OC(C)(C)C2` > 100 µM

###

- Tested on: COLO 205 colon
- Experiment Summary: NCI tumour cell line growth inhibition, 48 h
TGI values, listed per item

Compound	Tested On	TGI
O=C(Nc1cc2c(=O)oc3ccccc3c2oc1=O)c1cccnc1	COLO 205 colon	> 100 µM

From here, focus on the item given below.
# value lookup — system COLO 205 colon, readout TGI, item COC(C(=O)C(O)C(C)O)C1CC2C=C3C=C(OC4CC(OC5CC(O)C(OC)C(C)O5)C(OC(C)=O)C(C)O4)C(C)C(=O)C3=C(O)C2=C(O)C1OC1CC(OC2CC(OC3CC(C)(O)C(OC(=O)C(C)C)C(C)O3)C(O)C(C)O2)C(O)C(C)O1 (centres undefined) < 0.01 µM

###

- System: HOP-92 NSCLC
- Experiment Summary: NCI tumour cell line growth inhibition, 48 h; in the data active means GI50 below about 0.43 µM; inactive means the rest
Your answer must be one of the following: t (active), f (inactive)

# count of solved cases: 3
Compound	Class Assignment
CS(=O)(=O)Nc1cccc(-c2cc(-c3ccccc3Cl)c(C#N)c(N)n2)c1	f
COC1=CC(=O)C(OC)=C(OC)C1=O	f
OC(COc1ccc(F)cc1)Cn1cnc2c(Cl)ncnc21 (stereo not given)	f

Called result for `CCn1cc(-c2ccnc3[nH]ccc23)c(-c2cccc(NC(=O)Nc3ccc(OCc4ccccc4)cc3)c2)n1` f

Please give the result for `CC(C)CC(=O)Nc1n[nH]c2c1CN(C(=O)C1CCN(C)CC1)C2(C)C` too. f

Please give the result for `O=Cc1ccc(-c2ccc(-c3nc4ccccc4o3)cc2)s1` too. f

Please give the result for `Cc1nc([C@H]2CC[C@H]3[C@@H]4CCC5=CC(=O)CC[C@]5(C)[C@H]4CC[C@]23C)cs1` too. f

Please give the result for `CN1CCN(c2cc(C(=O)Nc3cc4cc(-c5cnn(C)c5)ccc4cn3)ccn2)CC1` too. t

Please give the result for `N#CSc1c[nH]c2ccc(/C=C/C(=O)/C=C(/C=C/c3ccc4[nH]cc(SC#N)c4c3)OB(F)F)cc12` too. t

Please give the result for `NCCN.NCCN.O=C[O-].O=C[O-].[Co+3].[O-][Cl+3]([O-])([O-])[O-]` too. f

Cited source for all entries: PubChem BioAssay (NCI)
